- Tested on: Setaria faberi (SETFA)
- assay.details: Pre-emergence herbicidal activity, glasshouse pot test
- Type: in vivo
- experimental.setup: Setaria faberi, 480 h, rate 500 g/ha, evaluated after 20 days, read-out: Pre-emergence activity, SETFA (100=total damage to plant; 0=no damage to plant)
Decide using pest or weed control at 500 g/ha alone. Strictly below 90%: 1. Equal to or above 90%: -1.

Would you please look over these solved cases?
molecule	assayed.target	class.assignment
CCc1cc(C)cc(CC)c1C1=C(OC(=O)C(CC)CC)CC2(CCOCC2)CC1=O	Setaria faberi (SETFA)	-1
CCOC1=C(c2c(CC)cc(C)cc2CC)C(=O)CC2(CCOCC2)C1	Setaria faberi (SETFA)	1
CCCSC(C)CC1CC(=O)C(c2c(C)cc(C)cc2C)=C(O)C1 (centres unmarked)	Setaria faberi (SETFA)	1
CCc1cc(C)cc(CC)c1C1=C(O)CC(CCSC)CC1=O (centres unmarked)	Setaria faberi (SETFA)	-1
CCSC(C)CC1CC(=O)C(c2c(C)cc(C)cc2CC)=C(O)C1 (centres unmarked)	Setaria faberi (SETFA)	1

[in] In the record for CCc1cc(C)cc(CC)c1C1=C(OC(=O)OCC(C)(C)C)CC2(CCOCC2)CC1=O , is pest or weed control at 500 g/ha less than 90%?
[out] -1

[in] And the next one, CCc1cc(C)cc(CC)c1C1=C(OC(=O)C2CCCCC2)CC2(CCOCC2)CC1=O ?
[out] -1

[in] Continue with CCc1cc(C)cc(CC)c1C1=C(OS(=O)(=O)CC(F)(F)F)CC2(CCOCC2)CC1=O
[out] -1

[in] Also CCc1cc(C)cc(CC)c1C1=C(O)CC(C2CCCO2)CC1=O (centres unmarked) ?
[out] -1

[in] And CSC(C)CC1CC(=O)C(c2c(C)cc(C)cc2C)=C(O)C1 (centres unmarked) ?
[out] 1

[in] Same lookup for CCCOC1=C(c2c(CC)cc(C)cc2CC)C(=O)CC2(CCOCC2)C1 , please.
[out] 1

----------
// reported pest or weed control at 500 g/ha per item
- Tested on: Alopecurus myosuroides (ALOMY)
- assay.details: Post-emergence herbicidal activity, glasshouse pot test
- Type: in vivo
- experimental.setup: Alopecurus myosuroides, rate 500 g/ha, evaluated after 14 or 15 days, read-out: Post-emergence activity, ALOMY (100=total damage to plant; 0=no damage to plant)
The reply should consist of the numeric value with the unit placed after it.

Worked examples follow.
compound	result
CCc1cc(C)cc(CC)c1C1=C(OC(=O)C(C)(C)C)CC2(CCOCC2)CC1=O	100%
CCc1cc(C)cc(C)c1C1=C(O)CC2(CCOCC2)CC1=O	80%
CCc1cc(C)cc(CC)c1C1=C(O)CC(C2(SC)CCC2)CC1=O (centres unmarked)	100%
CCc1cc(C)cc(C)c1C1=C(O)CC(CCSC)CC1=O (centres unmarked)	90%
COC1CCC2(CC1)CC(=O)C(c1cc(C)ccc1C)=C(OC(=O)CC(C)(C)C)C2 (centres unmarked)	70%
CCCSC(C)CC1CC(=O)C(c2c(CC)cc(C)cc2CC)=C(O)C1 (centres unmarked)	80%
CCC[S+]([O-])C(C)CC1CC(=O)C(c2c(CC)cc(C)cc2CC)=C(O)C1 (centres unmarked)	90%
CCc1cc(C)cc(CC)c1C1=C(O)CC(COCCOC)CC1=O (centres unmarked)	90%

[in] Would you kindly share the measured pest or weed control at 500 g/ha for CCc1cc(C)cc(CC)c1C1=C(O)CC(C2CCCO2)CC1=O (centres unmarked) ?
[out] 100%

[in] Another: CSCCC1CC(=O)C(c2c(C)cc(C)cc2C)=C(O)C1 (centres unmarked)
[out] 80%

[in] Same thing, different compound: CCc1cc(C)cc(CC)c1C1=C(O)CC(C2(SC)CC2)CC1=O (centres unmarked)
[out] 90%
